assay: in vitro; settings: human, hela cells, % viability
Examples of compounds with documented viability at 28.5 h, 10 µM follow.
A number alone suffices; assume %.

# example entries with known answers
compound | viability at 28.5 h, 10 µM [%]
COc1ccc([C@H]2CN(Cc3ccccc3)[C@@H]3CCN(C(=O)c4ccccc4)C[C@H]23)cc1 | 86.6
CC(=O)c1c(C)oc2ccc(O)c(CN3CCOCC3)c12 | 104
Cc1c(Cl)cccc1NC(=O)CSc1nnc(Cc2cccc3ccccc23)n1-c1ccccc1 | 98.7
Cc1ccc(O)cc1CC[C@@H]1CC(=O)CC2(C)C1CC[C@]2(O)C(=O)COC(=O)CCC(=O)O (some centres unmarked) | 119

Q: Quick one: viability at 28.5 h, 10 µM for CC(C)(O)c1cn(C2CN(C(=O)c3sccc3-c3ccccc3)C2)nn1 ?
Result: 87.6

====

This section presents compounds with their documented viability at 28.5 h, 10 µM values.
test: in vitro; settings: human, hela cells, % viability
// units = %; emit number, no label

Completed entries (count: 6):
compound | viability at 28.5 h, 10 µM, %
COc1cc(S(=O)(=O)NCc2ccc3c(c2)OCO3)c(OC)cc1Cl | 97.1
COc1ccc(C(C)NC(=O)C2CCCCC2C(=O)O)cc1OC (stereo not drawn) | 91.1
CC1=NNC(=O)C1C(c1ccc(Cl)cc1Cl)C1C(=O)NN=C1C (stereo not drawn) | 109
O=C(O)C1CCN(c2cncc(-c3ccc4ccccc4c3)n2)CC1 | 95.5
CN(C)c1ccc(C(=O)Nc2nnc(C3=COCCO3)o2)cc1 | 98.8
COC(=O)c1c(NC(=O)C2CC=CCC2C(=O)O)sc2c1CCC(C)C2 (stereo not drawn) | 101

Q: # get_value(readout='viability at 28.5 h, 10 µM', item= CC1=C[C@@H](CC#N)[C@H](C(C)C)C[C@H]1CC(=O)Nc1ccccn1 )
Result: 87

Q: So what's the measured viability at 28.5 h, 10 µM for this one? Cc1ccc2c(c1)cc(C(=O)N1CCCC(C)(C(=O)NC3CCCC3)C1)n2C (stereo not drawn)
Result: 81.3

Q: I am curious: what viability at 28.5 h, 10 µM value has been reported for CC1Cc2cc(C(O)CN3CCCCC3)ccc2N1C(=O)C1CC1 (stereo not drawn) ?
Result: 97.4

====

test: in vitro; settings: human, hela cells, % viability
property.name: viability at 28.5 h, 10 µM (%)
# number only, unit % dropped from output

Check out these entries, answers already filled in.
compound | viability at 28.5 h, 10 µM [%]
CCc1nc2ccc(C(=O)NCCN3CCOCC3)cn2c1N(C)Cc1cc2ccccc2s1 | 101
CCC(C)Oc1ccccc1OCCN1C(=O)NC(C)(C)C1=O (stereo not shown) | 98.5
COC(=O)c1ccc(CN2CCN(CCN3C(=O)c4cccc5cccc(c45)C3=O)CC2)cc1 | 88.8

Q: If you can, please state the reported viability at 28.5 h, 10 µM value of Cn1ccnc1C(NC(=O)Cc1ccc(O)cc1)c1ccccc1 (stereo not shown) .
Result: 87.9

Q: Name the recorded viability at 28.5 h, 10 µM for c1c(CC2CCCCC2)nnn1[C@H]1CO[C@H]2[C@@H]1OC[C@@H]2NCC1CC1 .
Result: 99.1

Q: Quick one: viability at 28.5 h, 10 µM for Nc1nnnn1CC(=O)N/N=C/c1cc2c(cc1[N+](=O)[O-])OCO2 ?
Result: 117

Q: Suppose we examine the compound CCN(Cc1cnc(C)s1)[C@H]1CCO[C@@H](c2ccccc2-c2ccc(OC)cc2)C1 ; what viability at 28.5 h, 10 µM value has been reported?
Result: 95.5

Q: Param item = O=C(c1cc(S(=O)(=O)NCc2ccco2)c(Cl)cc1Cl)N1CCC1 ; retrieve measured viability at 28.5 h, 10 µM.
Result: 98

Q: Need viability at 28.5 h, 10 µM, item COC[C@H]1CCCN1C(=O)[C@@H](C)C1CC[C@@]2(C)CC[C@H](NC(C)=O)[C@@H](C)[C@@H]2[C@H]1O (stereo partly shown)
Result: 110

====

assay: in vitro; details: human, hela cells, % viability
Measured viability at 28.5 h, 10 µM of individual entries
A number alone suffices; assume %.

Q: Could you tell me which viability at 28.5 h, 10 µM is on file for O=C(O)c1cccc2c1C(=O)C(CC1CCCO1)N2 (stereo not shown) ?
Result: 90.6

====

experiment: in vitro; details: human, hela cells, % viability
property.name: viability at 28.5 h, 10 µM (%)
Value expressed in %; do not type the unit.

molecule | viability at 28.5 h, 10 µM, %
Cc1nc2sccn2c1CN1CCC(O)(c2ccc(F)cc2)CC1 [CBK282792] | 98.2
O=c1[nH]c2ccccc2n1CCCN1CCC(Oc2cncc(OCC3COc4ccccc4O3)n2)C1 (stereo not shown) [CBK084380] | 94.4
O=C(c1sccc1Br)N1CCN(Cc2ccc3c(c2)OCO3)CC1 [CBK074730] | 100
O=C(NCc1cccc2ccccc12)N1CCCC(CO)C1 (stereo not shown) [CBK156035] | 112
CCC(C)C(NC(=O)Cc1c[nH]c2ccccc12)C(=O)O (stereo not shown) [CBK286720] | 91
O=C1C[C@@H]2CCN(C(=O)NC3CCCCC3)C[C@@H]2CCN1CCN1CCNC1=O [CBK288796] | 96.4

Q: Would you mind telling me what viability at 28.5 h, 10 µM value was observed for COc1ccc2ccccc2c1CN1CCN(C/C=C/c2ccccc2)CC1 [CBK261899] ?
Result: 108

Q: Return reported viability at 28.5 h, 10 µM; argument: O=c1c2c3c(sc2nc(SCc2cc(O)[nH]n2)n1Cc1ccco1)CCC3 [CBK268301]
Result: 99.4

Q: Form field: reported viability at 28.5 h, 10 µM of CCNc1nccnc1-c1ccncc1 [CBK088586]
Result: 119

Q: Requested field: viability at 28.5 h, 10 µM. Item: Clc1ccc(CN2CCN(CCc3ccccc3)CC2)cc1Cl [CBK126420]
Result: 96.3

====

assay: in vitro; settings: human, hela cells, % viability
// NB: equality with 90% counts as false; only viability at 28.5 h, 10 µM strictly below is true

compound | assigned.class
COc1ccc(-c2nccnc2N[C@@H](CO)C(C)C)cc1 | false

Q: Find out if reported viability at 28.5 h, 10 µM for O=C(Cc1c[nH]c2ccccc12)N1CCC2(CCCN(C(=O)c3cccnc3)C2)C1 (stereo not drawn) is less than 90%
Result: false

Q: Determine whether this compound shows viability at 28.5 h, 10 µM lower than 90% (ties excluded): FC(F)(F)c1ccc(OCCOc2ccccc2)nc1
Result: true

Q: Given COc1ccccc1NC(=O)C1=C(C)Nc2nnnn2C1c1ccc(OC)c([N+](=O)[O-])c1 (stereo not drawn) , is recorded viability at 28.5 h, 10 µM strictly lower than 90%?
Result: true

Q: Say whether its viability at 28.5 h, 10 µM is strictly beneath 90%. Entry: CCN(CC)C(=O)c1sc2ncccc2c1NS(=O)(=O)c1c(C)noc1C
Result: false

Q: Hello, I'm reviewing records and need to know if viability at 28.5 h, 10 µM of Fc1ccc2c(-c3ccccc3)noc2c1 is below 90%. Could you check?
Result: true

Q: # TODO verify viability at 28.5 h, 10 µM < 90% strictly for this compound: O=C(NC1CC1)[C@H]1C=CCN1C(=O)c1cccs1
Result: false

Q: viability at 28.5 h, 10 µM strictly < 90% for this compound? Cc1ccccc1CN1CCC(NC(=O)Cn2cc(Br)ccc2=O)CC1
Result: false

Q: Bench note: check whether Nc1nc(Cl)c2ncn([C@H]3C[C@@H](O)[C@@H](CO)O3)c2n1 shows viability at 28.5 h, 10 µM below 90%
Result: false

====

assay: in vitro; details: human, hela cells, % viability
Friendly reminder: viability at 28.5 h, 10 µM below 90% is criterion met, at or above is criterion not met.

Illustrative cases are given below, each with its answer.
compound | assigned.class
COCC(=O)N1CCCC(c2nc(C)n3c(C)csc23)C1 (centres unmarked) [CBK285214] | criterion not met
CSCCC(=O)N1CCN(C(=O)c2ccco2)CC1 [CBK144468] | criterion not met
OCCN1CC2(CCN(CC3COc4ccccc4O3)CC2)c2ccccc21 (centres unmarked) [CBK143955] | criterion met
Cn1ccc(C(=O)N2CCC[C@H](C(=O)c3cccs3)C2)n1 [CBK282412] | criterion not met
O=C(O)CN1C(=O)CC2(C1=O)C(=O)N(Cc1ccccc1)c1ccccc12 (centres unmarked) [CBK076093] | criterion not met
CN(Cc1cnn(C)c1)C(=O)c1cc(O)nc2ccccc12 [CBK251706] | criterion not met

Q: Dear reviewer, please state whether Cc1nc(C(Cc2ccsc2)NC(=O)Cn2cccn2)sc1C (centres unmarked) [CBK284781] has viability at 28.5 h, 10 µM strictly beneath 90%.
Result: criterion not met
